- test target: phosphor-EGFR in H1975(L585R/T790M) mutant EGFR expressing cells (Homo sapiens, UniProt P00533, L858R/T790M)
- Sequence (P00533 25-1210 T790M/L858R): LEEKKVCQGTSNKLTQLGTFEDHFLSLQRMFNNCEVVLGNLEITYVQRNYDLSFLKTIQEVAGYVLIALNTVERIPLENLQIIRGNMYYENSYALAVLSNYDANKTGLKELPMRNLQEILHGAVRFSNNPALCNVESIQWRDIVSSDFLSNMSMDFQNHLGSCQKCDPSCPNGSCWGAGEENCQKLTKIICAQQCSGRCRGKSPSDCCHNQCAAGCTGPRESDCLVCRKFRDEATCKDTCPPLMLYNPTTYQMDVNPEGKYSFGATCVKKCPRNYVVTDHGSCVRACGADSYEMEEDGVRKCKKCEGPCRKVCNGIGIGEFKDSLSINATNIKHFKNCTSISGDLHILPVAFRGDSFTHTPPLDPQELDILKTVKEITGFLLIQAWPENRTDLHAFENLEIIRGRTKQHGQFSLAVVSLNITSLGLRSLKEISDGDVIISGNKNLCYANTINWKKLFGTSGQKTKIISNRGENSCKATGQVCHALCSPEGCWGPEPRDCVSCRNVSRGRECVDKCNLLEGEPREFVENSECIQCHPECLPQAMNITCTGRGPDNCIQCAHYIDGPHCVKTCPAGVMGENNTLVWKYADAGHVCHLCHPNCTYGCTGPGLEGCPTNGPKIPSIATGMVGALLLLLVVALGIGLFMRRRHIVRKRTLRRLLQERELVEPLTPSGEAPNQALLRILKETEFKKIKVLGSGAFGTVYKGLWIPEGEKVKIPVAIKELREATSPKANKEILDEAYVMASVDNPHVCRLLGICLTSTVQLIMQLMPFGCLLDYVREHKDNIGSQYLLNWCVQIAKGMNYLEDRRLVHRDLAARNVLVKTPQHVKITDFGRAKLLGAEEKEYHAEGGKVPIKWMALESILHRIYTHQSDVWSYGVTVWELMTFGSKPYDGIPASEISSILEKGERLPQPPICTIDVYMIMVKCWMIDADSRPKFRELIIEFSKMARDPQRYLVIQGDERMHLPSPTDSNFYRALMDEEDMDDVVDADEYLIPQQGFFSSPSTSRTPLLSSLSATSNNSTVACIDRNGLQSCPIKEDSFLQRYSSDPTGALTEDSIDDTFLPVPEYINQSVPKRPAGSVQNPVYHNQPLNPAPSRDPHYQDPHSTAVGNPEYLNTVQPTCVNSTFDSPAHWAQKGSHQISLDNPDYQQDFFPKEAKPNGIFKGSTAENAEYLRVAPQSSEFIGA
- procedure details: H1975 pEGFR MSD cellular assay
- recorded conditions: NCI-H1975 cells, serum starved, 1 hour compound incubation, pEGFR Tyr1068 MSD
pEC50: −log10 of the molar value.
Returns met if the recorded pEC50 is greater than or equal to 7, and not met otherwise.

INSERT INTO measurements (compound, class) VALUES
  ('CC1(C)COc2nc3cnc(Nc4ccnc(-c5cnn(S(=O)(=O)C6CC6)c5)n4)cc3n21', 'not met'),
  ('COC1CCN(c2nccc(Nc3cc4c(cn3)nc([C@@H](C)O)n4[C@@H](C)C(F)(F)F)n2)CC1F (stereo partly shown)', 'met'),
  ('CC(C)n1c(CO)nc2cnc(Nc3ccnc(N4C[C@H]5CC[C@@H](C4)[C@H]5O)n3)cc21', 'not met'),
  ('O=S(=O)(C1CC1)n1cc(-c2nccc(Nc3cc4c(cn3)nc(CO)n4-c3ccccc3)n2)cn1', 'not met'),
  ('C[C@H](n1c([C@@H](C)O)nc2cnc(Nc3ccnc(N4CCC(O)C(F)C4)n3)cc21)C(F)(F)F (mixture of isomers)', 'not met'),
  ('COC1(CN)CCN(c2nccc(Nc3cc4c(cn3)nc(C)n4C(C)C)n2)CC1', 'not met');

These data points were gathered from patent US9890152B2.
